Tested on: Adult mongrel dogs
Assay: Cardiotonic activity in anesthetized dogs (MAP, HR, dP/dtmax, contractile force), iv infusion
Type: in vivo
Conditions: Canis lupus familiaris, cumulative dose 1.875 mg/kg, femoral artery, read-out: MAP (mean arterial pressure), % Δ from control
READOUT TYPE: change in vivo at 1.875 mg/kg (%)
Please reply with the bare figure in % and do not write the unit itself.

# annotated cases, reported change in vivo at 1.875 mg/kg shown
* CC(=O)OC(CNc1ncnc2[nH]ncc12)CN1CCN(C(c2ccc(F)cc2)c2ccc(F)cc2)CC1 (stereo not drawn) [Example 8, Hemihydrate] | 6
* OC(CNc1ncnc2[nH]ncc12)CN1CCN(C(c2ccc(F)cc2)c2ccc(F)cc2)CC1 (stereo not drawn) [Example 7, sesquihydrate] | 6
* CN(CC(O)CN1CCN(C(c2ccc(F)cc2)c2ccc(F)cc2)CC1)c1ncnc2[nH]ncc12 (stereo not drawn) [Example 9, Hemihydrate] | 4
* OC(CSc1ncnc2[nH]ncc12)CN1CCN(C(c2ccc(F)cc2)c2ccc(F)cc2)CC1 (stereo not drawn) [Example 1] | -3
* OC(CSc1ncnc2[nH]ncc12)CN1CCN(C(c2ccc(Cl)cc2)c2ccc(Cl)cc2)CC1 (stereo not drawn) [Example 4] | 8

Query block: Dear colleague, please send me the reported change in vivo at 1.875 mg/kg for CCN(CC(O)CN1CCN(C(c2ccc(F)cc2)c2ccc(F)cc2)CC1)c1ncnc2[nH]ncc12 (stereo not drawn) [Example 10, Hydrate] when you can.
Result block: 3

Query block: Return reported change in vivo at 1.875 mg/kg. Input compound: OC(CSc1ncnc2[nH]ncc12)CN1CCN(C(c2ccccc2)c2ccccc2)CC1 (stereo not drawn) [Example 2, Hemihydrate]
Result block: -12

Query block: Look up and state reported change in vivo at 1.875 mg/kg for CON(CC(O)CN1CCN(C(c2ccc(F)cc2)c2ccc(F)cc2)CC1)c1ncnc2[nH]ncc12 (stereo not drawn) [Example 11, Hydrate]
Result block: -2

Query block: Find the measured change in vivo at 1.875 mg/kg of OC(COc1ncnc2c1cnn2C1CCCCO1)CN1CCN(C(c2ccc(F)cc2)c2ccc(F)cc2)CC1 (stereo not drawn) [Example 3] and report it.
Result block: -13

###

Below, each of the molecules is paired with its reported change in vivo at 1.875 mg/kg value.
Test system: Adult mongrel dogs
Test: Cardiotonic activity in anesthetized dogs (MAP, HR, dP/dtmax, contractile force), iv infusion
Format: in vivo
Settings: Canis lupus familiaris, cumulative dose 1.875 mg/kg, right ventricle strain gauge, read-out: CF (myocardial contractile force), % Δ from control
Field: value (include unit after the number)

Known results for molecules:
- OC(CSc1ncnc2[nH]ncc12)CN1CCN(C(c2ccc(Cl)cc2)c2ccc(Cl)cc2)CC1 (stereo not drawn): 163%
- CC(=O)OC(CNc1ncnc2[nH]ncc12)CN1CCN(C(c2ccc(F)cc2)c2ccc(F)cc2)CC1 (stereo not drawn) [Example 8, Hemihydrate]: 135%
- CCN(CC(O)CN1CCN(C(c2ccc(F)cc2)c2ccc(F)cc2)CC1)c1ncnc2[nH]ncc12 (stereo not drawn) [Example 10, Hydrate]: 63%
- OC(CSc1ncnc2[nH]ncc12)CN1CCN(C(c2ccccc2)c2ccccc2)CC1 (stereo not drawn) [Example 2, Hemihydrate]: 97%
- CN(CC(O)CN1CCN(C(c2ccc(F)cc2)c2ccc(F)cc2)CC1)c1ncnc2[nH]ncc12 (stereo not drawn) [Example 9, Hemihydrate]: 54%
- OC(CSc1ncnc2[nH]ncc12)CN1CCN(C(c2ccc(F)cc2)c2ccc(F)cc2)CC1 (stereo not drawn): 205%
- OC(CNc1ncnc2[nH]ncc12)CN1CCN(C(c2ccc(F)cc2)c2ccc(F)cc2)CC1 (stereo not drawn) [Example 7, sesquihydrate]: 111%
- CON(CC(O)CN1CCN(C(c2ccc(F)cc2)c2ccc(F)cc2)CC1)c1ncnc2[nH]ncc12 (stereo not drawn) [Example 11, Hydrate]: 37%

Here is the next item to consider.
Query block: Return the recorded change in vivo at 1.875 mg/kg value; entry: OC(COc1ncnc2c1cnn2C1CCCCO1)CN1CCN(C(c2ccc(F)cc2)c2ccc(F)cc2)CC1 (stereo not drawn)
Result block: 14%
